Each entry below carries its recorded IC50.
# assay target: UniProt P41145
# Sequence (P41145 whole entry): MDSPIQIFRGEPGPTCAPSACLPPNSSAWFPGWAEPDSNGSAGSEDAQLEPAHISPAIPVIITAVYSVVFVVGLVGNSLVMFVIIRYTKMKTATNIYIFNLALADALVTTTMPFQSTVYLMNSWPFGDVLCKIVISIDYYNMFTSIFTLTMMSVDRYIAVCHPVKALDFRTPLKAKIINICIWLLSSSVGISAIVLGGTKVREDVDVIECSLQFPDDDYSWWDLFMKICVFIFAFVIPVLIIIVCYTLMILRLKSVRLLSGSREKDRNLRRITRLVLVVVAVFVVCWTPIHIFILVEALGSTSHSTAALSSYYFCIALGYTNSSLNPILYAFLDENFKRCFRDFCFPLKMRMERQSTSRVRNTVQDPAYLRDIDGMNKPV
# Format: functional
test readout: IC50 (µM)

• COc1ccc(C(=O)/C(=C\c2ccco2)N2C=CC=CC2=C(C#N)C#N)cc1 = 18
• O=C(Cn1ncc(Cl)c(Cl)c1=O)N1CCc2ccccc21 = 2.85

----------
Each entry below carries its recorded AC50.
# assay target: UniProt:O75030
# Sequence (O75030 whole entry): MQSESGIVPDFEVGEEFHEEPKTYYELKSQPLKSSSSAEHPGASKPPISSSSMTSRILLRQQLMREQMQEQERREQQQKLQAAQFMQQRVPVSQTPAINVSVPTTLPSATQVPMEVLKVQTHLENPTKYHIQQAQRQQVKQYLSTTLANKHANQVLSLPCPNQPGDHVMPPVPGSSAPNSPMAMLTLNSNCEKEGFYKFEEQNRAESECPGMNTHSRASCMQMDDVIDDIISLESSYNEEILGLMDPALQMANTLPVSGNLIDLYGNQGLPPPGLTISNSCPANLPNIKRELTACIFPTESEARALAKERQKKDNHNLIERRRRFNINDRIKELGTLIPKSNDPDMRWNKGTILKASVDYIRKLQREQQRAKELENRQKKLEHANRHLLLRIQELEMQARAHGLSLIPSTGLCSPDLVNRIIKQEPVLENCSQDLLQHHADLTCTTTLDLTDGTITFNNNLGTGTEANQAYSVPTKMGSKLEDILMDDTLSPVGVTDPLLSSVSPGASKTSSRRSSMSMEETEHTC
# protocol text: TRPM1 promoter luciferase signal decrease, dose response, MITF inhibitor project, cell-based, SK-MEL-5, cherry-picked, set 3 (AID 493073);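 further: SK-MEL-5 melanoma cells with luciferase driven by the MITF target TRPM1 promoter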
# Format: functional
Active and inactive are the calls of the source.
test readout: AC50

• Cc1c(Cl)c([N+](=O)[O-])nn1Cc1ccc(C(=O)N/N=C\c2cc(Cl)ccc2O)o1 = 3.47 µM (active)
• O=[N+]([O-])c1ccc(/C=N/N=C/c2ccc([N+](=O)[O-])o2)o1 = 9.36 µM (active)
• Cn1nnnc1Sc1ncnc2scc(-c3cccc(F)c3)c12 = 5.98 µM (active)
• CCOC(=O)Cn1/c(=N/C(=O)c2ccc([N+](=O)[O-])s2)sc2ccccc21 = 3.5 µM (active)
• O=C(Cn1ncc(Cl)c(Cl)c1=O)N1CCc2ccccc21 = 6.1 µM (active)
• N=c1n(CC(=O)c2ccc(Br)s2)c2ccccc2n1Cc1ccccc1 = 7.34 µM (active)

----------
# assay target: Sentrin-specific protease 6 (Homo sapiens, UniProt Q9GZR1)
# Sequence (Q9GZR1 whole entry): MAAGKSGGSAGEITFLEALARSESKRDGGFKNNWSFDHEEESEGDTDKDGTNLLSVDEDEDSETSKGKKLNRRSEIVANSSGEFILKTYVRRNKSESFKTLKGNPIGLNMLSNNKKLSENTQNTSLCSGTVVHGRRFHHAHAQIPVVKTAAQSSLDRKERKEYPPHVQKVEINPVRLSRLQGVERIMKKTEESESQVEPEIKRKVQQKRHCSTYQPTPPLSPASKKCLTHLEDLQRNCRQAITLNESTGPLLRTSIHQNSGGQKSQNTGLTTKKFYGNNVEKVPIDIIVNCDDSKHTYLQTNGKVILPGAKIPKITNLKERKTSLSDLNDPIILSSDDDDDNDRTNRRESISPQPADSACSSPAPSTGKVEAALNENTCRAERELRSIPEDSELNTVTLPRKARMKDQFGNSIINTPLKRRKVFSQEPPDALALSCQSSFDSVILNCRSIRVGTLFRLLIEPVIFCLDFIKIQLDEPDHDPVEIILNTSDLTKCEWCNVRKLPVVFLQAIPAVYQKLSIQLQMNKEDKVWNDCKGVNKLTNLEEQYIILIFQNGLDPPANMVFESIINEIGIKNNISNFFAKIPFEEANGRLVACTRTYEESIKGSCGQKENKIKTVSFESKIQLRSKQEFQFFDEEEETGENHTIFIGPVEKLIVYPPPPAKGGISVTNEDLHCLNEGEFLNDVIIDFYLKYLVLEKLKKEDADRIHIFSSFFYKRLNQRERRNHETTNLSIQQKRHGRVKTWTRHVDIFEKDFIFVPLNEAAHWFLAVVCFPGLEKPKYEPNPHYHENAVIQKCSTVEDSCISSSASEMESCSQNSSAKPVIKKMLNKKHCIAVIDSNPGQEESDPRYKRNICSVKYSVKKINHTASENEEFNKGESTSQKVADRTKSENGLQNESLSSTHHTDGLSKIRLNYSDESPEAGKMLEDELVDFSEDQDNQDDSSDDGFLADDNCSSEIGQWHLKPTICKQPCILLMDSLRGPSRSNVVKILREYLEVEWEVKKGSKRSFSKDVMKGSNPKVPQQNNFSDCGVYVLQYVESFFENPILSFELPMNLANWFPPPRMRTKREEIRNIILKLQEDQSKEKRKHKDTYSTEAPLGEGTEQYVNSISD
# protocol text: SAR Analysis of small molecule inhibitors of Sentrin-specific protease 6 (SENP6) using a Luminescent assay. [Related pubchem assays (depositor defined):AID2582, AID2599]
# Format: functional
Activity calls are given as the source filed them.
Labels: 1 for active, 0 for inactive

* O=C(O)c1ccc(OC2CSC2)cc1 | 1
* Cc1ccc(S(=O)(=O)Nc2ccc3sc(NC(=O)c4ccccc4)nc3c2)cc1 | 0
* CS(=O)(=O)c1ccc2nc(NC(=O)c3cccc(NS(=O)(=O)c4ccccc4)c3)sc2c1 | 0
* Cc1cccc(-c2noc(/C=C/c3ccccc3)n2)c1 | 1
* COc1ccc(N/N=C/c2cn(Cc3ccccc3)c3ccccc23)cc1 | 0
* CCOC(=O)c1c(-c2ccc(Br)cc2)csc1NC(=O)C1CC1 | 0

----------
Each entry below carries its recorded EC50.
# assay target: 5-hydroxytryptamine receptor 2A (Mus musculus);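 further: CHO-K1 cells with tagged receptor and beta-arrestin; agonist potency measured as compound-induced activation of the receptor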
# Sequence (P35363 whole entry): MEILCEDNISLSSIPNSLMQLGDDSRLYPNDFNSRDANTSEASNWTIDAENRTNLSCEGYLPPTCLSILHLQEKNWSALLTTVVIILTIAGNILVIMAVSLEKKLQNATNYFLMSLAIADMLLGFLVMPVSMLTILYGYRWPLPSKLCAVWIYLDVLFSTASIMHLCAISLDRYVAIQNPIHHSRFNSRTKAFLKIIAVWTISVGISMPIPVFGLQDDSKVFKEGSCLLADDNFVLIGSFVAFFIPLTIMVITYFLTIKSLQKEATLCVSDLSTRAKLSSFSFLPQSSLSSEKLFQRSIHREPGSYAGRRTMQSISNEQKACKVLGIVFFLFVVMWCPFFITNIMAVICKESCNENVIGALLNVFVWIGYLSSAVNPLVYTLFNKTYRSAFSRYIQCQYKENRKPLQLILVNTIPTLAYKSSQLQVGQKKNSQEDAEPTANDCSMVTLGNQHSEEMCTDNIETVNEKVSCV
# Format: functional, cell-based
Calls of active or inactive are those of the source.
test readout: EC50

* O=S(=O)(c1ccc(OCC(O)CN2CCN(c3ccccc3Cl)CC2)cc1)N1CCOCC1 (centres undefined) | 25.4 µM (inactive)
* O=S(=O)(c1ccc(OCC(O)CN2CCN(c3ccccc3O)CC2)cc1)N1CCOCC1 (centres undefined) | 76.1 µM (inactive)
* O=C(CCN1CCN(c2ccccc2)CC1)N/N=C/c1ccccc1OC(F)F | 25.4 µM (inactive)
* CC(=O)c1cccc(OCC(O)CN2CC=C(c3ccccc3)CC2)c1 (centres undefined) | 0.0752 µM (active)

----------
# assay target: FAD-linked sulfhydryl oxidase ALR (Homo sapiens)
# Sequence (P55789 whole entry): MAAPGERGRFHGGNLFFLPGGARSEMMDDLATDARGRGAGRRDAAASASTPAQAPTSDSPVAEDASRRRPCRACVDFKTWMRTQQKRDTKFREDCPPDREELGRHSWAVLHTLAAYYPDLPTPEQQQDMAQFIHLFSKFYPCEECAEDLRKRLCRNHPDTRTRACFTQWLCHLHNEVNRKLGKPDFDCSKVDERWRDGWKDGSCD
# protocol text: inhibitors of human ALR sulfhydryl oxidase, dose response, biochemical, H2O2 detection, luminescence, cherry-pick (AID 493248)
The source made the active and inactive calls.
Each entry below carries its recorded AC50.
test readout: AC50

* COc1ccc(N2CCN(Cc3nc4ccccc4n3C)CC2)cc1 | 8.25 µM (active)
* COc1ccc(N2CCN(CCCNC(=O)C3CCCN(S(=O)(=O)c4c[nH]cn4)C3)CC2)cc1 (centres undefined) | 25.4 µM (active)
* Cc1ccc(N2C(=O)C(CC(=O)Nc3cccc(F)c3)N(C3CC3)C2=O)cc1 (centres undefined) | < 0.014 µM (active)
* Cc1ccc(S(=O)(=O)NNC(=O)NC23CC4CC(CC(C4)C2)C3)cc1 | 1.02 µM (active)

----------
Each entry below carries its recorded AC50.
# assay target: Cytochrome P450 1A2 (Homo sapiens, UniProt P05177);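 further: PubChem cytochrome P450 panel assay, CYP1A2 panel member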
# Sequence (P05177 whole entry): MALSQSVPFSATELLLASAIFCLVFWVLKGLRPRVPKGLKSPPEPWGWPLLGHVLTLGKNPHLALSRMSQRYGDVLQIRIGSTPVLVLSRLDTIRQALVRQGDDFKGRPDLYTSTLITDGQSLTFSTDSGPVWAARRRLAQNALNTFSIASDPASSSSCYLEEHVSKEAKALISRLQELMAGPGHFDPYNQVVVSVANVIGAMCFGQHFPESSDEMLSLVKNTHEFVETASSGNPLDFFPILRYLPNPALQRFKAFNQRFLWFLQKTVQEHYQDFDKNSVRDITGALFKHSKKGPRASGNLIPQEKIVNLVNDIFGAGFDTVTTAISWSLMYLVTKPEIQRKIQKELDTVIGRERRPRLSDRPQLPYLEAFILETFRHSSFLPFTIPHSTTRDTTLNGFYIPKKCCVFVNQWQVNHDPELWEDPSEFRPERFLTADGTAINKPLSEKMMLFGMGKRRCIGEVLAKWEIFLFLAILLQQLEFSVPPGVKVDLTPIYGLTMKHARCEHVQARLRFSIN
test readout: AC50

- O=C(c1cccc(F)c1)N1CCC2(CCCN(c3cccc(-c4ccccc4)c3)C2)CC1: 15.8 µM (inconclusive)
- N[C@H](Cc1ccc(Cl)cc1)C(=O)O: 2 µM (inconclusive)
- CN(C)CCNc1oc(COc2ccc(Cl)cc2Cl)nc1C#N: 25.1 µM (inconclusive)
- Cc1ccc(C(CC(=O)c2ccco2)SCCO)cc1 (stereo unspecified): 25.1 µM (inconclusive)
- COc1ccccc1NC(=O)C1=C(C)Nc2nc(-c3ccc(N(C)C)cc3)nn2C1c1ccncc1 (stereo unspecified): 12.6 µM (inconclusive)
- CC1(C)OC(=O)C(/C=N/CC(O)c2ccccc2)=C(O)O1 (stereo unspecified): 25.1 µM (inconclusive)

----------
# assay target: Rac GTPase-activating protein 1 (Homo sapiens)
# Sequence (Q9H0H5 whole entry): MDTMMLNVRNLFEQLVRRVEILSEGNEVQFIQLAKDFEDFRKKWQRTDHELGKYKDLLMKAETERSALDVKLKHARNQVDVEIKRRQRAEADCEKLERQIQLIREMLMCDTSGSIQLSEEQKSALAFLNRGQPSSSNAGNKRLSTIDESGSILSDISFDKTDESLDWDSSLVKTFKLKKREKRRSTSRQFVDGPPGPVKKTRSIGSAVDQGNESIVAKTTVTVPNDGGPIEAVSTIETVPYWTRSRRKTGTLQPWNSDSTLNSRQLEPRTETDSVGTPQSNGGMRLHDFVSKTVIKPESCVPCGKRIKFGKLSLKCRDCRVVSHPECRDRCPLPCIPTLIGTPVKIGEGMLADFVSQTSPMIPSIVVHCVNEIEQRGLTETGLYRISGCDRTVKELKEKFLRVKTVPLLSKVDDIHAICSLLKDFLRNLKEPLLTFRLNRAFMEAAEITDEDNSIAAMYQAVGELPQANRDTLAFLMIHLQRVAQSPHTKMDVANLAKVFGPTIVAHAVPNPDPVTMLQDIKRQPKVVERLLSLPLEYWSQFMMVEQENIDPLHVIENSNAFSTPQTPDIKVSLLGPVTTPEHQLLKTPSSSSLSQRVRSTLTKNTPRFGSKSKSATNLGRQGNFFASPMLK
# protocol text: MgcRacGAP GTPase-activating activity inhibitors, confirmation, biochemical, ADP Hunter fluorescence, primary and confirmatory (AID 624330)
# Format: functional
The source made the active and inactive calls.
test readout: IC50

• CN1CCN(/N=C/c2nc(-c3ccc(Cl)cc3)n3ccccc23)CC1 = 27.1 µM (active)
• CN(C)/C=C1\NC(=S)N(c2ccccc2)C1=O = 65.4 µM (active)
• CCOC(=O)c1[nH]c2ccccc2c1NC(=S)Nc1ccccc1 = 108 µM (active)
• CC1(C)C2CCC(CN=C(N)CSS(=O)(=O)O)C1C2 (stereo unspecified) = 65.3 µM (active)
• CCn1c(-c2ccccc2)cs/c1=N\c1ccc(O)cc1 = 31.7 µM (active)
• Nc1nn2c(-c3ccccc3)cc(O)nc2c1N=Nc1ccc(O)cc1 = 60.1 µM (active)

----------
# assay target: Apoptotic protease-activating factor 1 (Homo sapiens, UniProt O14727)
# Sequence (O14727 whole entry): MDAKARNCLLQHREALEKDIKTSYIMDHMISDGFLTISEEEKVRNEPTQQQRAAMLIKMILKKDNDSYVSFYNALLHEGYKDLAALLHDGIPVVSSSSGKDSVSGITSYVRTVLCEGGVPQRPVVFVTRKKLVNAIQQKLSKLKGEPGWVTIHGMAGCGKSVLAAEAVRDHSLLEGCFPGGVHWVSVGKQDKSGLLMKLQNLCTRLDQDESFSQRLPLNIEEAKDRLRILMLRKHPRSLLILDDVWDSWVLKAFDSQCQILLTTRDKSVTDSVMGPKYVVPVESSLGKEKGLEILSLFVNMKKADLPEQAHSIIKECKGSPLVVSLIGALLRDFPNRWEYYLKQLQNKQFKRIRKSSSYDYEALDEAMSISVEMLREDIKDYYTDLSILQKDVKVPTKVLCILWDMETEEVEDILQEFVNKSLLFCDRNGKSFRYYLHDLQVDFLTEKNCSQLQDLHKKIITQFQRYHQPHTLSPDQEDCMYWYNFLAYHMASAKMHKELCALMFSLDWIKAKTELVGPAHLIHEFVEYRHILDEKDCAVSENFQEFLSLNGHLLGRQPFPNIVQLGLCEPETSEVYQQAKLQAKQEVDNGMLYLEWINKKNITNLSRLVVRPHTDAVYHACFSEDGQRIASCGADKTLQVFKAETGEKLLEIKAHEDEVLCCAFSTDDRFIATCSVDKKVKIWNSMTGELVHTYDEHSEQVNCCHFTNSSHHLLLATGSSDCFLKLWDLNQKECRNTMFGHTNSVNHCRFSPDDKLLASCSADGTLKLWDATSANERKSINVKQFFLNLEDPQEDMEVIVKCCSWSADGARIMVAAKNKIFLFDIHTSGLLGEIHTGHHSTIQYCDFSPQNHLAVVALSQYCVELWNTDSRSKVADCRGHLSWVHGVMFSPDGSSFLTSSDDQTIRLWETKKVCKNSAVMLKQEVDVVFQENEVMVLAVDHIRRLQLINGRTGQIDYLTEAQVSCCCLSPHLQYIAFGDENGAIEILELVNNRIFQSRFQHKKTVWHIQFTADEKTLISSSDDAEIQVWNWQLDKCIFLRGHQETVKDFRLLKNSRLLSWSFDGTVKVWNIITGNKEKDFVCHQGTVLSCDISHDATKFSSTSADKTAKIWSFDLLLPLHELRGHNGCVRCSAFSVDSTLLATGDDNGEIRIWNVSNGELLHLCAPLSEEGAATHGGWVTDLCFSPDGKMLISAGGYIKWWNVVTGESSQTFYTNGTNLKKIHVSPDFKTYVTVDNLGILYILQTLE
# Assay type: functional
Activity calls are given as the source filed them.
test readout: IC50

• COC(=O)CCC(=O)OC1(C)C(=O)C2=CN(CC3CC3)C(c3ccc(OC)cc3)=CC2=C(Br)C1=O (centres undefined) = 31.7 µM (active)
• COc1ccc(OCCNc2c([N+](=O)[O-])c(=O)oc3ccccc23)cc1 = 4.61 µM (active)
• COc1ccc(C(=O)c2c(C(F)(F)F)oc3c2C(=O)c2ccccc2C3=O)cc1 = 5.29 µM (active)
• CN1CCc2cc3c(c4c2C1Cc1ccccc1-4)OCO3 (centres undefined) = 10.2 µM (active)

----------
# assay target: Heat shock protein HSP 90-alpha (Homo sapiens)
# Format: functional, organism-based
The source made the active and inactive calls.
test readout: AC50

* Cc1ccc(/N=C/c2cc(Cc3ccccc3Cl)cc([N+](=O)[O-])c2O)c(O)c1 | 1610 nM (active)
* O=[N+]([O-])c1oc2ccc3ccccc3c2c1CCO | 1230 nM (active)
* Cc1ccc2nc(-c3ccc(NS(C)(=O)=O)cc3)cc(-c3ccccc3)c2c1 | 8000 nM (active)
* O=C1CC(N2CCN(c3nc4ccccc4s3)CC2)C(=O)N1Cc1cccs1 (configuration not stated) | 3340 nM (active)
* O=C(Nc1ccccc1)c1nnsc1S(=O)(=O)c1ccc(Cl)cc1 | 293 nM (active)
* O=C1C=CC(=O)N1c1cccc(-c2ccccc2)c1 | 378 nM (active)
* Cc1noc(O)c1N=Nc1c(Cl)cccc1Cl | 8730 nM (active)

Provenance of the data: ChEMBL document CHEMBL1201862
